Tested on: squirrel monkey
Assay: Squirrel monkey conditioned avoidance response (CAR) test
Format: in vivo
Conditions: Primates, po; Col. 9; p.o., 1 hr; minimal effective dose = dose producing an effect in at least 50% of the animals; read-out: CAR(MED) Sq. Monkey @ 1 hr
// reported minimal effective dose per item

COMPOUND	ASSAY TARGET	MEASURED RESULT
C[C@H]1CC[C@@H]2[C@@H](C1)c1cc(O)c(Cl)cc1CCN2C (relative stereo)	squirrel monkey	> 10 mg/kg
CN1CCc2cc(Cl)c(O)cc2[C@@H]2CCC[C@H]21 (relative stereo)	squirrel monkey	> 10 mg/kg
Cc1cc2c(cc1O)[C@@H]1CCCC[C@H]1N(C)CC2 (relative stereo)	squirrel monkey	> 10 mg/kg
Cc1cc2c(cc1O)[C@H]1[C@@H](CC[C@@H]1C)N(C)CC2 (relative stereo)	squirrel monkey	3 mg/kg

Input: Identify the measured minimal effective dose of C[C@H]1CC[C@@H]2[C@@H]1c1cc(O)c(Cl)cc1CCN2C (relative stereo) for squirrel monkey.
Output: > 10 mg/kg
